Test: in vitro
Conditions: human, hela cells
Reported endpoint: MNTC

QUERY: Need MNTC, item CC(C)OCC(CO)OCn1cnc2nc(N)ncc21 (centres unmarked) [Beispiel 6.10.]
RESULT: > 400 µg/mL

QUERY: Need MNTC, item Nc1nc(O)c2ncn(COC(CO)CO)c2n1 [reference compound]
RESULT: > 400 µg/mL

QUERY: Need MNTC, item CC(C)OCC(COC(C)C)OCn1cnc2nc(N)ncc21 [Beispiel 6.7.]
RESULT: > 400 µg/mL

QUERY: Need MNTC, item Nc1ncc2c(ncn2COC(CO)CO)n1 [Beispiel 6.12.]
RESULT: 44.4 µg/mL

QUERY: Need MNTC, item Nc1nc2ncn(COC(CO)CO)c2c(=O)[nH]1 [reference compound]
RESULT: > 400 µg/mL

---

Experiment: in vitro
Conditions: monkey, vero cells
Reported endpoint: MNTC

QUERY: Need MNTC, item CC(C)OCC(CO)OCn1cnc2nc(N)ncc21 (centres unmarked)
RESULT: > 400 µg/mL

QUERY: Need MNTC, item CC(C)OCC(COC(C)C)OCn1cnc2nc(N)ncc21
RESULT: > 400 µg/mL

QUERY: Need MNTC, item Nc1nc(O)c2ncn(COC(CO)CO)c2n1 [reference compound]
RESULT: > 400 µg/mL

QUERY: Need MNTC, item Nc1ncc2c(ncn2COC(CO)CO)n1
RESULT: 133 µg/mL

QUERY: Need MNTC, item Nc1nc2ncn(COC(CO)CO)c2c(=O)[nH]1 [reference compound]
RESULT: > 400 µg/mL

---

Test: in vitro
Details: monkey, vero cells
Reported endpoint: MNTC

QUERY: Need MNTC, item CC(C)OCC(CO)OCn1cnc2nc(N)ncc21 (centres unmarked)
RESULT: > 400 µg/mL

QUERY: Need MNTC, item CC(C)OCC(COC(C)C)OCn1cnc2nc(N)ncc21
RESULT: > 400 µg/mL

QUERY: Need MNTC, item Nc1nc(O)c2ncn(COC(CO)CO)c2n1 [reference compound]
RESULT: > 400 µg/mL

QUERY: Need MNTC, item Nc1ncc2c(ncn2COC(CO)CO)n1
RESULT: 133 µg/mL

QUERY: Need MNTC, item Nc1nc2ncn(COC(CO)CO)c2c(=O)[nH]1 [reference compound]
RESULT: > 400 µg/mL

---

Assay: in vitro
Details: bovine, mdbk cells
For each of the compounds below, state its MNTC.

QUERY: Need MNTC, item Nc1nc2ncn(COC(CO)CO)c2c(=O)[nH]1 [reference compound]
RESULT: > 400 µg/mL

QUERY: Need MNTC, item CC(C)OCC(CO)OCn1cnc2nc(N)ncc21 (centres unmarked)
RESULT: > 400 µg/mL

QUERY: Need MNTC, item Nc1nc(O)c2ncn(COC(CO)CO)c2n1 [reference compound]
RESULT: > 133 µg/mL

QUERY: Need MNTC, item Nc1ncc2c(ncn2COC(CO)CO)n1
RESULT: > 400 µg/mL

QUERY: Need MNTC, item CC(C)OCC(COC(C)C)OCn1cnc2nc(N)ncc21
RESULT: > 400 µg/mL
